Ref: ChEMBL document CHEMBL1201862

Target: Cytochrome P450 3A4 (Homo sapiens, UniProt P08684);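 further: confirmatory qHTS run detecting inhibitors and substrates of CYP3A4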
Sequence (P08684 whole entry): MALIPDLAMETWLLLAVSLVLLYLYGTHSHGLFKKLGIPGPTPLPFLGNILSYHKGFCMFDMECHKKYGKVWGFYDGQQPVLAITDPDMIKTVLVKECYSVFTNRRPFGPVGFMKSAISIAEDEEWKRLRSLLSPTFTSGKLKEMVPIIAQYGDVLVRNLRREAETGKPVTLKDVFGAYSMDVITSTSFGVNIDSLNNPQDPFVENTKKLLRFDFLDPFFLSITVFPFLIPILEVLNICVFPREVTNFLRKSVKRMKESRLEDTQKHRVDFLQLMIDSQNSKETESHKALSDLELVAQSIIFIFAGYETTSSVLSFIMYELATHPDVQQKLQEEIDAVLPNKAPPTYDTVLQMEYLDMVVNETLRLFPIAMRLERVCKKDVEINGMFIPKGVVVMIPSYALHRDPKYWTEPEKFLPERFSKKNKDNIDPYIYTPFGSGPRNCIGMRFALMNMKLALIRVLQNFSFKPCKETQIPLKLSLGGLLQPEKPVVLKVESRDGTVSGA
Settings: Potency
AC50 values by entry
Measured parameter: AC50

- CC(=O)OCC(=O)[C@@]1(O)CCC2C3CC(C)C4=CC(=O)C=CC4(C)C3C(O)CC21C (stereo not given in full): 12.6 µM (inconclusive)
- COc1ccc2[nH]cc(CC(N)C(=O)O)c2c1 (stereo not given): 31.6 µM (inconclusive)
- CCN(CC)CCCn1c(-c2ccccc2)nc2c(NCc3ccccc3)nc(C)nc21: 10 µM (inconclusive)
- c1ccc(Nc2ccc3ccccc3c2)cc1: 25.1 µM (inconclusive)
- COC(=O)[C@@H]1C[C@@]2(O)[C@H](O)[C@H](O)[C@H](O)C[C@H]2N1Cc1ccc(N2CCN(C)CC2)cc1: 31.6 µM (inconclusive)
- COC(=O)[C@@H]1C[C@H]2CC[C@H](O)C[C@H]2N1Cc1ccc(-c2ccccc2)cc1: 12.6 µM (inconclusive)
- COc1ccc(OC2C(O)COC2/C=C/C#Cc2ccccc2)cc1 (stereo not given): 3.98 µM (inconclusive)
- Cc1nc(N2CCOCC2)c2nc(-c3ccccc3)n(CC(C)(C)CN(C)C)c2n1: 10 µM (inconclusive)
- CC(=O)O[C@@]1(C(C)=O)CCC2C3CC(C)C4=CC(=O)CC[C@@]4(C)C3CC[C@]21C (stereo not given in full): 39.8 µM (inconclusive)
- COC(=O)C/C=C/C(C)C(OCc1cccc(Br)c1)C(C)C(OC)C1CCCCC1 (stereo not given): 3.98 µM (inconclusive)
